Assay: Total clearance in Beagle dog at 1 mg/kg, iv by LC-MS/MS analysis
Type: ADME, organism-based, Canis lupus familiaris
Settings: in vivo
Reported property: clearance (mL/min/kg)
Give the value in mL/min/kg but do not write mL/min/kg after it.

-- ask If you can, please state the reported clearance value of COc1cc(F)c([C@@H]2CNC(=O)[C@H]2NC(=O)Nc2ccccc2)c(F)c1 .
-- reply 6.6

----------
Test: AUC (0 to infinity) in Beagle dog at 1 mg/kg, po by LC-MS/MS analysis
Format: ADME, organism-based, Canis lupus familiaris
Parameters: route oral, time infinity, dose 1 mg/kg
Conditions: in vivo
Reported property: AUC(0-inf) (µM·h)
Reply numerically in µM·h, unit not repeated.

-- ask Request the reported AUC(0-inf) associated with COc1cc(F)c([C@@H]2CNC(=O)[C@H]2NC(=O)Nc2ccccc2)c(F)c1
-- reply 5.7
